# assay-comment: Solubility of budiodarone tartrate in water (Example 2)
# Format: physicochemical
# study-conditions: distilled water, water, thermodynamic from solid, water, room temperature; read-out: aqueous solubility of budiodarone tartrate
Where a name gives a salt, the structure may show the parent alone.
quantity-kind: solubility at 96 h
A bare number is not enough; add the unit after it.

Input CC[C@H](C)OC(=O)Cc1oc2ccccc2c1C(=O)c1cc(I)c(OCCN(CC)CC)c(I)c1 [budiodarone tartrate] , output reported solubility at 96 h. 7040 µg/mL
